Test system: hemoglobin-haptoglobin complex
test protocol: Stability of hemoglobin (as hemoglobin-haptoglobin complex) in samples preserved at 37° C. in preservation solution containing 1 unit/L haptoglobin, Hb measured by latex agglutination method (Examples 1 to 7)
Parameters: species or system human
run parameters: No feces; arylboronic acid 15 mmol/L; 37° C., 14 days
recorded endpoint: Hb concentration (µg/L)
Quick note: give the figure in µg/L, leave out the unit.

For orientation, consider the following solved cases.
>>> print(df.to_string())
                molecule                 subject_of_test  recorded_endpoint  value
0  O=C(O)c1cccc(B(O)O)c1  hemoglobin-haptoglobin complex   Hb concentration    276
1    O=C(O)c1ccccc1B(O)O  hemoglobin-haptoglobin complex   Hb concentration    264
2  O=C(O)c1ccc(B(O)O)cc1  hemoglobin-haptoglobin complex   Hb concentration    271

The molecule listed as OB(O)c1cccc(O)c1 [3H-PBA, 3-hydroxyphenylboronic acid] shows Hb concentration equal to 296

====

A collection of compounds and their measured Recovery ratio with respect to Hb after 0 days
System: hemoglobin-haptoglobin complex
test protocol: Stability of hemoglobin (as hemoglobin-haptoglobin complex) in samples preserved at 37° C. in preservation solution containing 1 unit/L haptoglobin, Hb measured by latex agglutination method (Examples 1 to 7)
Design: species or system human
run parameters: Feces 1; arylboronic acid 15 mmol/L; 37° C., 0 days
Quick note: give the figure in %, leave out the unit.

For orientation, consider the following solved cases.
>>> print(df.to_string())
                                   compound  value
0  O=C(O)c1ccc(B(O)O)cc1 [4C-PBA, 4-carboxyphenylboronic acid]    100
1  O=C(O)c1ccccc1B(O)O [2C-PBA, 2-carboxyphenylboronic acid]    100
2  OB(O)c1cccc(O)c1 [3H-PBA, 3-hydroxyphenylboronic acid]    100

Next compound, please.
Note to self: Recovery ratio with respect to Hb after 0 days of O=C(O)c1cccc(B(O)O)c1 [3C-PBA, 3-carboxyphenylboronic acid] with hemoglobin-haptoglobin complex was 100

====

A collection of molecules and their measured Hb concentration
Test system: hemoglobin-haptoglobin complex
test protocol: Stability of hemoglobin (as hemoglobin-haptoglobin complex) in samples preserved at 37° C. in preservation solution containing 1 unit/L haptoglobin, Hb measured by latex agglutination method (Examples 1 to 7)
Design: species or system human
run parameters: Feces 3; sugar 100 mmol/L + phenylboronic acid 15 mmol/L; 37° C., 14 days
Quick note: give the figure in µg/L, leave out the unit.

For orientation, consider the following solved cases.
>>> df
                               smiles_entry  value
0    OC[C@@H](O)[C@@H](O)[C@H](O)[C@H](O)CO    240
1  OC[C@H]1O[C@@](CO)(O[C@H]2O[C@H](CO)[C@@H](O)[C@H](O)[C@H]2O)[C@@H](O)[C@@H]1O    201
2   OC[C@@H](O)[C@@H](O)[C@H](O)[C@@H](O)CO    226
3  OC[C@H]1O[C@H](O[C@H]2O[C@H](CO)[C@@H](O)[C@H](O)[C@H]2O)[C@H](O)[C@@H](O)[C@@H]1O    192

Next molecule, please.
The molecule listed as O=C(CO)[C@@H](O)[C@H](O)[C@H](O)CO shows Hb concentration equal to 222
